Target: HiBit-BRG1 fusion protein in stable HeLa cell line expressing HiBit-BRG1 and LgBit (Homo sapiens, UniProt P51532)
Construct: expressed in transfected cells
Sequence (P51532 whole entry, the tested form may be a part): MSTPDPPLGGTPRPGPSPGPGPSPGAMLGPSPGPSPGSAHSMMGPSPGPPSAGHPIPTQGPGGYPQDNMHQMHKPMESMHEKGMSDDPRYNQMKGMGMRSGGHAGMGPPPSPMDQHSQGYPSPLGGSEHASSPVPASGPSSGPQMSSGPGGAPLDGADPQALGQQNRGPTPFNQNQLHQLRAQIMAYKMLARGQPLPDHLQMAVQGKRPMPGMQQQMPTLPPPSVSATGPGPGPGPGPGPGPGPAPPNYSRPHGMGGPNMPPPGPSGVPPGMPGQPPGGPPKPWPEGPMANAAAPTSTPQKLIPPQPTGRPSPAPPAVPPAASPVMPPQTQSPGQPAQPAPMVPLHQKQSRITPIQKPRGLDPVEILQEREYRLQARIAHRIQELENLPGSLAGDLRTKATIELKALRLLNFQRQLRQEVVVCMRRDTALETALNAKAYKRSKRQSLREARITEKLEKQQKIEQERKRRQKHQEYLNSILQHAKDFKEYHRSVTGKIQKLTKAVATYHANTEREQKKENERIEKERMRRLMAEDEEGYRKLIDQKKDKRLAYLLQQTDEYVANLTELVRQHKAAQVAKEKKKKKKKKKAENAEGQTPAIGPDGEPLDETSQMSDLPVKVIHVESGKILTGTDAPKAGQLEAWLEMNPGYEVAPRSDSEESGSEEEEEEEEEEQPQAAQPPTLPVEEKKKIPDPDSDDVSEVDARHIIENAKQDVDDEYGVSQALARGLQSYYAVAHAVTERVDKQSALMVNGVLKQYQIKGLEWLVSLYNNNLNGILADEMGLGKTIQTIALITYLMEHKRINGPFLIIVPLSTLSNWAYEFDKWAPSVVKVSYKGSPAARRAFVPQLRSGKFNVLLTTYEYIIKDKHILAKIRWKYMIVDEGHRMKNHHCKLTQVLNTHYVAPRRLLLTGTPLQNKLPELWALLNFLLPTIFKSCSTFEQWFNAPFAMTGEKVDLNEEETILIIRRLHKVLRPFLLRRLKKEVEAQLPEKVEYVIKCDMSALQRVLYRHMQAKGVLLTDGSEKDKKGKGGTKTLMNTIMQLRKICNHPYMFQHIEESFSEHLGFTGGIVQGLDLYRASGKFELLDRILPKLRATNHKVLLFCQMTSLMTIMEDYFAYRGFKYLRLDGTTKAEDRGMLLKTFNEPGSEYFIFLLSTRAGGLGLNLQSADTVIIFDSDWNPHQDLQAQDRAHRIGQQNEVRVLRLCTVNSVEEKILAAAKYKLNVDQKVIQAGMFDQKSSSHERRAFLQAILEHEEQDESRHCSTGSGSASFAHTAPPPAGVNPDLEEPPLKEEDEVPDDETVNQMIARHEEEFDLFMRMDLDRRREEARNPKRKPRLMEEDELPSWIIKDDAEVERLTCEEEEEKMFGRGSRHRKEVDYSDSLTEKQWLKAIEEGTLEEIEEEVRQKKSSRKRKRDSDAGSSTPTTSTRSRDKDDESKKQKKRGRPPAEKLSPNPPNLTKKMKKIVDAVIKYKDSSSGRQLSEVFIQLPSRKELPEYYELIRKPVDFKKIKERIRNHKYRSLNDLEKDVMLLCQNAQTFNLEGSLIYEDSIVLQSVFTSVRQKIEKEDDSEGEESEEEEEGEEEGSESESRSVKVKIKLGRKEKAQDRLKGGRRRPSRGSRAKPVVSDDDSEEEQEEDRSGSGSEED
Experiment: HiBiT-BRG1 cell-based degradation assay (Nano-Glo HiBiT, 24 h)
Details: HeLa HiBit-BRG1/LgBit cells, top dose 30 μM, read-out: BRG1 HiBit Degradation Maximum (%)
Please respond with reported Dmax for every item in the list.

Problem: Record request: Dmax value, item Cc1ncsc1-c1ccc([C@H](C)NC(=O)[C@@H]2C[C@@H](O)CN2C(=O)C(c2cc(N3CCC4(CN(c5ccc6cc(-c7ccccc7O)nnc6c5)C4)C(F)(F)C3)no2)C(C)C)cc1 (some centres unmarked)
Solution: > 75%

Problem: Check `CC(C)[C@@H](C(=O)N1C[C@H](O)C[C@H]1C(=O)N[C@@H](C)c1ccc(F)cc1)c1cc(-c2ccc3nnc(-c4ccccc4O)cc3c2)no1` too.
Solution: > 75%

Problem: Check `Cc1ncsc1-c1ccc([C@H](C)NC(=O)[C@@H]2C[C@@H](O)CN2C(=O)[C@@H](c2cc(N3CCN(c4ccc5cc(-c6ccccc6O)nnc5c4)CC3)no2)C(C)C)cc1` too.
Solution: < 50%

Problem: Check COC[C@@H]1CN(c2cc(C(C(=O)N3C[C@H](O)C[C@H]3C(=O)N[C@@H](C)c3ccc(-c4scnc4C)cc3)C(C)C)on2)CCN1c1ccc2nnc(-c3ccccc3O)cc2c1 (some centres unmarked) too.
Solution: > 75%

Problem: Check `Cc1ncsc1-c1ccc([C@H](C)NC(=O)[C@@H]2C[C@@H](O)CN2C(=O)[C@@H](c2ccnc(N3CC4(CN(c5ccc6cc(-c7ccccc7O)nnc6c5)C4)C3)c2)C(C)C)cc1` too.
Solution: < 50%

Problem: Check `Cc1ncsc1-c1ccc([C@H](C)NC(=O)[C@@H]2C[C@@H](O)CN2C(=O)[C@@H](c2cc(-c3cnc(N4CC(c5ccc6nnc(-c7ccccc7O)cc6c5Cl)C4)nc3)no2)C(C)C)cc1` too.
Solution: < 50%

Problem: Check Cc1ncsc1-c1ccc([C@H](C)NC(=O)[C@@H]2C[C@@H](O)CN2C(=O)C(C(C)C)n2cc(N3CCCC4(CCN(c5ccc6cc(-c7ccccc7O)nnc6c5)CC4)C3)nn2)cc1 (some centres unmarked) too.
Solution: > 75%

Problem: Check `Cc1ncsc1-c1ccc([C@H](C)NC(=O)[C@@H]2C[C@@H](O)CN2C(=O)[C@@H](c2cc(-c3cnc(N4CC5(CC(c6ccc7cc(-c8ccccc8O)nnc7c6)C5)C4)nc3)no2)C(C)C)cc1` too.
Solution: > 50%

---

Please respond with reported DC50 for every item in the list.
Molecular target: HiBit-BRG1 fusion protein in stable HeLa cell line expressing HiBit-BRG1 and LgBit (Homo sapiens, UniProt P51532)
Construct: expressed in transfected cells
Experiment: HiBiT-BRG1 cell-based degradation assay (Nano-Glo HiBiT, 24 h)
Conditions: HeLa HiBit-BRG1/LgBit cells, read-out: BRMG1 HiBit Degradation IC50

Problem: Record request: DC50 value, item `Cc1ncsc1-c1ccc([C@H](C)NC(=O)[C@@H]2C[C@@H](O)CN2C(=O)[C@@H](c2cc(N3CCN([C@H]4CCN(c5ccc6cc(-c7ccccc7O)nnc6c5)CC4(F)F)CC3)no2)C(C)C)cc1`
Solution: < 0.01 µM

Problem: Check Cc1ncsc1-c1ccc([C@H](C)NC(=O)[C@@H]2C[C@@H](O)CN2C(=O)[C@H](C(C)C)n2cc(C3CC4(CC(c5ccc6cc(-c7ccccc7O)nnc6c5)C4)C3)nn2)cc1 (stereo partly shown) too.
Solution: > 0.01 µM

Problem: Check `Cc1ncsc1-c1ccc([C@H](C)NC(=O)[C@@H]2C[C@@H](O)CN2C(=O)[C@H](C(C)C)n2cc(-c3cc4cc(-c5ccccc5O)nnc4cc3F)nn2)cc1` too.
Solution: < 0.01 µM

Problem: Check `Cc1ncsc1-c1ccc([C@H](C)NC(=O)[C@@H]2C[C@@H](O)CN2C(=O)[C@@H](c2cc(N3CC4(C3)CN(c3cc5nnc(-c6ccccc6O)cc5cc3N(C)C)C4)no2)C(C)C)cc1` too.
Solution: < 0.01 µM

---

Please respond with reported Dmax for every item in the list.
Target: HiBit-BRG1 fusion protein in stable HeLa cell line expressing HiBit-BRG1 and LgBit (Homo sapiens)
Construct: expressed in transfected cells
Assay: HiBiT-BRG1 cell-based degradation assay (Nano-Glo HiBiT, 24 h)
Details: HeLa HiBit-BRG1/LgBit cells, top dose 30 μM, read-out: BRG1 HiBit Degradation Maximum (%)

Problem: Record request: Dmax value, item Cc1ncsc1-c1ccc([C@H](C)NC(=O)[C@@H]2C[C@@H](O)CN2C(=O)[C@H](C(C)C)n2cc(C3CC4(C3)CN(c3ccc5nnc(-c6ccccc6O)cc5c3)C4)nn2)cc1 [Compound 204]
Solution: > 75%

Problem: Check Cc1ncsc1-c1ccc([C@H](C)NC(=O)[C@@H]2C[C@@H](O)CN2C(=O)[C@H](c2cc(-c3cnc(N4CC(c5ccc6nnc(-c7ccccc7O)cc6c5Cl)C4)nc3)no2)C(C)C)cc1 [Compound 43] too.
Solution: < 50%

Problem: Check COC[C@@H]1CN(c2cc([C@H](C(=O)N3C[C@H](O)C[C@H]3C(=O)N[C@@H](C)c3ccc(-c4scnc4C)cc3)C(C)C)on2)CCN1c1ccc2cc(-c3ccccc3O)nnc2c1 [Compound 196] too.
Solution: < 50%

Problem: Check Cc1ncsc1-c1ccc([C@H](C)NC(=O)[C@@H]2C[C@@H](O)CN2C(=O)[C@@H](c2cc(-c3ccc4nnc(-c5cccc(F)c5O)cc4c3)no2)C(C)C)cc1 [Compound 143] too.
Solution: < 50%

Problem: Check Cc1ncsc1-c1ccc([C@H](C)NC(=O)[C@@H]2C[C@@H](O)CN2C(=O)[C@@H](c2cc(OCC(=O)N3CC(c4ccc5nnc(-c6ccccc6O)cc5c4)C3)no2)C(C)C)cc1 [Compound 6] too.
Solution: < 50%

Problem: Check Cc1ncsc1-c1ccc([C@H](C)NC(=O)[C@@H]2C[C@@H](O)CN2C(=O)[C@@H](c2cc(N3CC4(C3)CN(c3cc5nnc(-c6ccccc6O)cc5cc3Cl)C4)no2)C(C)C)cc1 [Compound 157] too.
Solution: > 50%

Problem: Check Cc1ncsc1-c1ccc([C@H](C)NC(=O)[C@@H]2C[C@@H](O)CN2C(=O)[C@@H](c2cc(-c3ccnc(N4CCC(c5ccc6nnc(-c7ccccc7O)cc6c5)CC4)n3)no2)C(C)C)cc1 [Compound 38] too.
Solution: < 50%

Problem: Check Cc1ncsc1-c1ccc([C@H](C)NC(=O)[C@@H]2C[C@@H](O)CN2C(=O)[C@@H](c2cc(N3CC[C@@H](c4ccc5nnc(-c6ccccc6O)cc5c4)C3)no2)C(C)C)cc1 [Compound 73] too.
Solution: < 50%

Problem: Check Cc1ncsc1-c1ccc([C@H](C)NC(=O)[C@@H]2C[C@@H](O)CN2C(=O)[C@@H](c2cc(N3C[C@@H]4[C@H](C3)[C@H]4c3ccc4cc(-c5ccccc5O)nnc4c3)no2)C(C)C)cc1 [Compound 59] too.
Solution: < 50%

Problem: Check Cc1ncsc1-c1ccc([C@H](C)NC(=O)[C@@H]2C[C@@H](O)CN2C(=O)[C@@H](c2cc(-c3cnc(N4CC(c5cc(Cl)c6cc(-c7ccccc7O)nnc6c5)C4)nc3)no2)C(C)C)cc1 [Compound 36] too.
Solution: < 50%

---

Please respond with reported Dmax for every item in the list.
Target: HiBit-BRG1 fusion protein in stable HeLa cell line expressing HiBit-BRG1 and LgBit (Homo sapiens)
Construct: expressed in transfected cells
Assay: HiBiT-BRG1 cell-based degradation assay (Nano-Glo HiBiT, 24 h)
Conditions: HeLa HiBit-BRG1/LgBit cells, top dose 30 μM, read-out: BRG1 HiBit Degradation Maximum (%)

Problem: Record request: Dmax value, item `Cc1ncsc1-c1ccc([C@H](C)NC(=O)[C@@H]2C[C@@H](O)CN2C(=O)[C@@H](c2cc(N3CC4(CC(Oc5ccc6nnc(-c7ccccc7O)cc6c5)C4)C3)no2)C(C)C)cc1`
Solution: > 50%

Problem: Check `COc1cc2cc(-c3ccccc3O)nnc2cc1CN1CC[C@H](N2CCN(c3cc([C@H](C(=O)N4C[C@H](O)C[C@H]4C(=O)N[C@@H](C)c4ccc(-c5scnc5C)cc4)C(C)C)on3)CC2)C(F)(F)C1` too.
Solution: > 75%

Problem: Check `Cc1ncsc1-c1ccc([C@H](C)NC(=O)[C@@H]2C[C@@H](O)CN2C(=O)[C@@H](c2cc(OCCN3CC(c4ccc5cc(-c6ccccc6O)nnc5c4)C3)no2)C(C)C)cc1` too.
Solution: > 50%

Problem: Check Cc1ncsc1-c1ccc([C@H](C)NC(=O)[C@@H]2C[C@@H](O)CN2C(=O)C(C(C)C)n2cc(N3CCN(CC4CCN(c5ccc6cc(-c7ccccc7O)nnc6c5)CC4)CC3)nn2)cc1 (stereo partly shown) too.
Solution: > 75%

Problem: Check `Cc1ncsc1-c1ccc([C@H](C)NC(=O)[C@@H]2C[C@@H](O)CN2C(=O)[C@@H](c2cc(N3CCC4(CCN(c5ccc6nnc(-c7ccccc7O)cc6c5)C4)CC3)no2)C(C)C)cc1` too.
Solution: > 75%

Problem: Check `Cc1ncsc1-c1ccc([C@H](C)NC(=O)[C@@H]2C[C@@H](O)CN2C(=O)[C@@H](c2cc(N3CC4(CN(c5ccc6cc(-c7ccccc7O)nnc6c5)CCO4)C3)no2)C(C)C)cc1` too.
Solution: > 75%

Problem: Check Cc1ncsc1-c1ccc([C@H](C)NC(=O)[C@@H]2C[C@@H](O)CN2C(=O)[C@@H](c2cc(N3CCN4CCN(c5ccc6cc(-c7ccccc7O)nnc6c5)CC4C3)no2)C(C)C)cc1 (stereo partly shown) too.
Solution: > 75%

Problem: Check `Cc1ncsc1-c1ccc([C@H](C)NC(=O)[C@@H]2C[C@@H](O)CN2C(=O)[C@@H](c2cc(N3CCC(CN4CC(c5ccc6nnc(-c7ccccc7O)cc6c5)C4)CC3)no2)C(C)C)cc1` too.
Solution: < 50%

Problem: Check `Cc1ncsc1-c1ccc([C@H](C)NC(=O)[C@@H]2C[C@@H](O)CN2C(=O)[C@@H](c2cc(N3CC4=C(CN(c5ccc6cc(-c7ccccc7O)nnc6c5)C4)C3)no2)C(C)C)cc1` too.
Solution: > 75%

Problem: Check `Cc1ncsc1-c1ccc([C@H](C)NC(=O)[C@@H]2C[C@@H](O)CN2C(=O)[C@@H](c2cc(N3CCC4(CC[C@H](c5ccc6nnc(-c7ccccc7O)cc6c5)C4)CC3)no2)C(C)C)cc1` too.
Solution: > 75%

Data credit: patent US20260193264A1
